Test system: SK-MEL-2 melanoma
Assay: NCI tumour cell line growth inhibition, 48 h
Reported TGI is given for each of the following compounds.
endpoint: TGI (µM)

| compound | systemTested | comparisonSymbol | recordedNumber |
| --- | --- | --- | --- |
| S=C1SSC2N=CC=CC12 (stereo not given) | SK-MEL-2 melanoma | > | 100 |
| CCOC(=O)c1c(NC(=O)c2cccc(C(F)(F)F)c2)sc2c(CN(C)C)c(O)ccc12 | SK-MEL-2 melanoma | = | 6.92 |
| O=Cc1ccc2c(c1-c1c(C=O)ccc3c1OCO3)OCO2 | SK-MEL-2 melanoma | > | 100 |
| O=C1NC(=O)/C(=C\c2ccccc2)C2=C1CCCC2 | SK-MEL-2 melanoma | = | 22.9 |
| CN(CCO)c1ccc(N2Cc3ccccc3OC3=C2C(=O)c2c(O)ccc(O)c2C3=O)cn1 | SK-MEL-2 melanoma | = | 0.99 |
| C#COc1cccc(Nc2c(C#N)cnc3ncc(NC(=O)CCl)cc23)c1 | SK-MEL-2 melanoma | > | 62.5 |
| COc1ccc(CC2c3cc(OC)c(OC)cc3CC[N+]2(C)C)cc1OC (stereo not given) | SK-MEL-2 melanoma | > | 100 |
| Cc1cc(C)c(C(=O)c2nnc3ccccc3c2N)c(C)c1 | SK-MEL-2 melanoma | = | 31.9 |
| Cc1cc(C)c(C[C@H]2COC(=O)[C@]2(O)Cc2c(C)cc(C)cc2C)c(C)c1 | SK-MEL-2 melanoma | = | 40.2 |
| O=C1NC(=O)C(c2c[nH]c3ccccc23)=C1c1cn(C(c2ccccc2)(c2ccccc2)c2ccccc2)cn1 | SK-MEL-2 melanoma | = | 25.6 |

====

Test system: OVCAR-8 ovarian
Test: NCI tumour cell line growth inhibition, 48 h
Each entry below carries its reported TGI.
endpoint: TGI

| compound | systemTested | endpoint | result |
| --- | --- | --- | --- |
| Cc1c(/C=N/NC(=O)c2ccc(Cl)cc2)c(=O)n(-c2ccccc2)n1C | OVCAR-8 ovarian | TGI | > 100 µM |
| CC(=O)O[C@H]1CC[C@@]2(C)C(=CC[C@@H]3[C@@H]2CC[C@]2(C)NC(=O)/C(=C\c4ccccc4)C[C@@H]32)C1 | OVCAR-8 ovarian | TGI | 45 µM |
| CCN1CCC(O)(/C=C/c2ccc(C)cc2)C(C(=O)/C=C/c2ccc(C)cc2)C1 (configuration not stated) | OVCAR-8 ovarian | TGI | 7.54 µM |
| Cc1nn(C(=O)c2ccc(Cl)cc2)c2c1C(/C=C/c1ccccc1)SC(N)=N2 (configuration not stated) | OVCAR-8 ovarian | TGI | > 10 µM |
| COc1ccc(/C(Cl)=C(\C=O)c2ccc(OC)c(OC)c2)cc1 | OVCAR-8 ovarian | TGI | > 100 µM |
| COC(=O)[C@H]1C=C[C@@H](C)n2c(=O)c3cc4ccccc4cc3c(=O)n21 | OVCAR-8 ovarian | TGI | > 100 µM |
| Fc1ccc(C(=C2CCN(CCc3ccc4[nH]c(=S)[nH]c4c3)CC2)c2ccc(F)cc2)cc1 | OVCAR-8 ovarian | TGI | 8.26 µM |
| Cc1c(O)c(OC2OC(CO)C(O)C(O)C2O)cc2c1CC[C@@H]1C2(C)C(=O)C[C@]2(C)[C@@H]([C@@](C)(O)C(=O)CCC(C)(C)O)[C@H](O)C[C@@]12C (some centres not stated) | OVCAR-8 ovarian | TGI | > 100 µM |
| CC(C)N(CCn1c2c3ccccc3ccc2c2oc(=O)c3ccccc3c21)C(C)C | OVCAR-8 ovarian | TGI | > 100 µM |
| O=C(Oc1ccccc1)N1c2ccccc2[C@@]23O[C@]24CCC[C@H]3C#C/C=C\C#C[C@H]14 | OVCAR-8 ovarian | TGI | 24.8 µM |
| N#CC1=C(N)Oc2cc(O)ccc2C1c1cccc2ccccc12 (configuration not stated) | OVCAR-8 ovarian | TGI | 66.1 µM |
| Cc1ccc(S(=O)(=O)c2ccc(N)cc2)cc1 | OVCAR-8 ovarian | TGI | > 100 µM |
| CN(C)CC1CCC/C(=C\c2ccc(Cl)cc2)C1=O (configuration not stated) | OVCAR-8 ovarian | TGI | 17.4 µM |
| Cc1ccc(C)c(N=C2NC(=O)C(CC(=O)Nc3ccc(Cl)cc3Cl)S2)c1 (configuration not stated) | OVCAR-8 ovarian | TGI | > 100 µM |
| COc1ccc(-n2c(C)cc(-c3ccccc3)c2C)cc1 | OVCAR-8 ovarian | TGI | 38 µM |
| COc1cc(N=Nc2cccc(S(=O)(=O)O)c2)ccc1N=Nc1ccc(/C=C/c2ccc(-n3on3-c3ccc(/C=C/c4ccc(N=Nc5ccc(N=Nc6cccc(S(=O)(=O)O)c6)cc5OC)cc4S(=O)(=O)O)c(S(=O)(=O)O)c3)cc2S(=O)(=O)O)c(S(=O)(=O)O)c1 | OVCAR-8 ovarian | TGI | > 100 µM |
| C#COc1cccc(Nc2c(C#N)cnc3ncc(NC(=O)CCl)cc23)c1 | OVCAR-8 ovarian | TGI | > 62.5 µM |
| O=c1cc(CO)oc(C(O)c2ccccc2)c1O (configuration not stated) | OVCAR-8 ovarian | TGI | > 100 µM |
| O=C(c1cccs1)N(C(=O)N1CCN(c2ccccc2)CC1)S(=O)(=O)c1ccccc1 | OVCAR-8 ovarian | TGI | 39.5 µM |
| CC(O)CCCCC(O)CCC[C@H](O)[C@H]1CCC([C@H]2CCC([C@@H](O)CCCCCCCCCCCCC3=C[C@H](C)OC3=O)O2)O1 (some centres not stated) | OVCAR-8 ovarian | TGI | 21.7 µM |
| Cc1cc(S(=O)(=O)O)c(NC(=O)C(=O)Cc2cc(=O)oc3cc(O)ccc23)cc1Cl | OVCAR-8 ovarian | TGI | > 100 µM |
| COC(=O)[C@@H](C)C[C@H](Cc1ccccc1)NC(=O)c1csc([C@@H](C[C@H](C(C)C)N(C)C(=O)[C@@H](NC(=O)[C@H]2CCCCN2C)C2CCCCC2)OC(C)=O)n1 | OVCAR-8 ovarian | TGI | > 25 µM |
| O=C(CSC1CCc2ccccc21)N/N=C/c1ccccc1O (configuration not stated) | OVCAR-8 ovarian | TGI | > 100 µM |
| O=S(=O)(Nc1ccc(F)cc1F)c1ccc(-c2cnc(C3CC3)o2)cc1 | OVCAR-8 ovarian | TGI | > 95.2 µM |
| Cc1cc(C)c(/C=C2\C(=O)Nc3ccc(NC(=O)CCCCCCC(=O)NO)cc32)[nH]1 | OVCAR-8 ovarian | TGI | > 100 µM |
| CCCCCCOc1ccc(Nc2c(O)c3c(c(O)c2Cl)C(=O)C=CC3=O)cc1 | OVCAR-8 ovarian | TGI | > 5.31 µM |
| CCOC(=O)C1(C/C=C/CBr)CCc2ccccc2C1=O (configuration not stated) | OVCAR-8 ovarian | TGI | 36.7 µM |
| CCOC(=O)c1nc2ccc(C(F)(F)F)cc2[nH]c1=O | OVCAR-8 ovarian | TGI | > 100 µM |
| O=Cc1ccc2c(c1-c1c(C=O)ccc3c1OCO3)OCO2 | OVCAR-8 ovarian | TGI | > 100 µM |
| COc1cc(N(CCC#N)CCC#N)ccc1/C(N=Nc1ccccc1C)=N\NC(=O)c1ccc(C)cc1 | OVCAR-8 ovarian | TGI | > 100 µM |
| CC(C)N(C(=O)C1(O)c2ccccc2C=Cc2ccccc21)C(C)C | OVCAR-8 ovarian | TGI | 30.5 µM |
| Cc1ccc(NC(=O)CSc2nnc(-c3ccc(N=Cc4ccc(Cl)cc4)cc3)o2)cc1 | OVCAR-8 ovarian | TGI | > 100 µM |
| COc1ccc(OC)c(C(Cc2ccnc3ccccc23)Cc2ccnc3ccccc23)c1 | OVCAR-8 ovarian | TGI | > 10 µM |
| CC(CO)CCNc1ncnc2c1ncn2CCC(=O)OC(C)(C)C (configuration not stated) | OVCAR-8 ovarian | TGI | > 100 µM |
| Cc1cc(C)nc(NS(=O)(=O)c2ccc(NC(=O)c3cccc4c(Nc5ccc(S(N)(=O)=O)cc5)c5ccccc5nc34)cc2)n1 | OVCAR-8 ovarian | TGI | > 100 µM |
| COC1(OC)CC2C(=O)N(Cc3ccccc3)C1C=C2S(=O)(=O)c1ccccc1 (configuration not stated) | OVCAR-8 ovarian | TGI | 40.5 µM |
| COc1ccc(CC2c3cc(OC)c(OC)cc3CC[N+]2(C)C)cc1OC (configuration not stated) | OVCAR-8 ovarian | TGI | > 100 µM |

Hey, just so you know, these numbers are from PubChem BioAssay (NCI).
